assay: resazurin metabolic signal in HepG2 cells – cell-based, resazurin fluorescence, 24 h, PK04 Diversity Set, profiling panel (AID 1172); settings: HepG2 viability, higher = more signal; also: test concentration not given here
endpoint: z-score
Lab note: jot the number down without any unit.

# count of solved cases: 5
Name the recorded z-score of the compound listed here: CCOC(=O)C1=CC[C@@H](c2ccc(N(CC)CC)cc2)N(S(=O)(=O)c2ccc(C)cc2)[C@H]1c1ccc([N+](=O)[O-])cc1
-0.407

Respond only with z-score recorded for COCCOC(=O)N1C(=O)[C@@]2(c3cc(C#Cc4ccc(OC)cc4)ccc31)[C@H](C(=O)N1CCc3cc(OC)c(OC)cc3C1)[C@H]1C(=O)O[C@H](c3ccccc3)[C@H](c3ccccc3)N1[C@@H]2c1ccc(O)cc1
-0.0637

Answer with the recorded z-score of CC(C)C[C@@H]1NC(=O)[C@@H]2C[C@H](C(=O)NCc3ccc(F)cc3)[C@H](c3ccc(O)cc3)N2C1=O only.
-1.5

Name the recorded z-score of the item CCCC[C@H]1OB(O)C[C@H]2C1=C(COc1ccccc1)Cn1c(=O)n(-c3ccccc3)c(=O)n12 in your answer.
-0.0243

Read the entry [N-]=[N+]=NCc1ccccc1[C@H]1OC(c2ccc(OCCCO)cc2)=N[C@@]1(Cc1ccccc1)C(N)=O and write its reported z-score.
1.16

Further cases:
Report measured z-score; entry is C=CCOC(=O)[C@H]1[C@@H]2C(=O)O[C@@H](c3ccccc3)[C@@H](c3ccccc3)N2[C@@H](c2ccc(OCCOC(=O)[C@H]3C[C@H]4C(=O)N[C@@H](CCCCN(C)C)C(=O)N4[C@H]3c3ccc(O)cc3)cc2)[C@]12C(=O)Nc1ccccc12
0.569

----------
assay: plasmodial surface anion channel blockers, osmotic lysis – cell-based, P. falciparum Indochina, OD700, 1 h, primary screen (AID 1154); conditions: P. falciparum Indochina infected RBC osmotic lysis, higher = more signal, called active from +8 up or from −8 down
The threshold is inclusive: z-score of exactly 5 counts as criterion met; values below receive criterion not met.

Example cases with answers are listed next.
Tell me whether z-score is at least 5 here: CC(=O)NCCCC[C@@H]1NC(=O)[C@@H]2C[C@H](C(=O)NCCCC[N+](C)(C)C)[C@H](c3cccc(OCCO)c3)N2C1=O
criterion not met

Could you tell me if the measured z-score of COCCOC(=O)N1C(=O)[C@@]2(c3cc(C#CCCO)ccc31)[C@H](C(=O)N1CCc3cc(OC)c(OC)cc3C1)[C@H]1C(=O)O[C@H](c3ccccc3)[C@H](c3ccccc3)N1[C@@H]2c1ccc(OCCO)cc1 reaches 5 or more?
criterion not met

Is the recorded value of z-score equal to or greater than 5 for this compound? N#Cc1ccc(NN2C(C(O)c3ccco3)C=CC3C(=O)N(c4ccccc4)C(=O)C32)cc1 (stereo unspecified)
criterion met

New cases:
Say whether NC(=O)NCC#Cc1ccc2c(c1)[C@]1(C(=O)N2)[C@H](c2ccc(O)cc2)N2[C@H](c3ccccc3)[C@H](c3ccccc3)OC(=O)[C@H]2[C@@H]1C(N)=O shows z-score of 5 or more.
criterion not met

Given O=C1c2ccccc2[C@](Cc2ccccc2I)(C(=O)NC2CC2)[C@H](c2ccc(CO)cc2)N1Cc1ccccc1Cl , state whether its z-score is at least 5.
criterion met

----------
test system: PRMT1 (protein arginine N-methyltransferase 1); test: small molecules binding arginine methyltransferase PRMT1 – biochemical, small-molecule microarray, 635 nm fluorescence, primary screen (AID 1088); details: higher = more signal;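 also: binding of Prmt1 protein to compounds spotted on small-molecule microarray slides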
# composite z-score per entry
No unit in the answer, only the number.

The following compounds have reported results that may help.
Fill in composite z-score for COC(=O)[C@]1(Cc2ccccc2CN=[N+]=[N-])N=C(c2ccc(OCCCO)cc2)O[C@@H]1c1ccccc1 tested with PRMT1 (protein arginine N-methyltransferase 1).
-0.985

Fill: composite z-score (PRMT1 (protein arginine N-methyltransferase 1)) for this compound C=CCOC(=O)[C@H]1[C@@H]2C(=O)O[C@@H](c3ccccc3)[C@@H](c3ccccc3)N2[C@@H](c2ccc(OCCOC(=O)[C@H]3C[C@H]4C(=O)N[C@@H](CCCCN(C)C)C(=O)N4[C@H]3c3ccc(O)cc3)cc2)[C@]12C(=O)Nc1ccccc12
1.54

GET composite z-score where system = PRMT1 (protein arginine N-methyltransferase 1) and item = O=C1OCC=C[C@H]2OC34C=CCN(CCN5CCOCC5)C(=O)[C@H]3N(CCCCCO)C(=O)[C@@H]4[C@@H]12 (stereo not given in full)
-0.0623

Return reported composite z-score for target or system PRMT1 (protein arginine N-methyltransferase 1), item CC(C)c1ccc(NN2C(C(O)c3ccccn3)C=CC3C(=O)N(c4ccccc4)C(=O)C32)cc1 (stereo not given) .
1.5

Specify composite z-score for C[C@]12C(=O)N(CCCO)[C@@H]3C(=O)N(c4ccc(Cl)cc4)CC=CC31O[C@@H]1/C=C\CCCOC(=O)C12 (stereo not given in full) , system PRMT1 (protein arginine N-methyltransferase 1).
0.868

Others:
Lab note: PRMT1 (protein arginine N-methyltransferase 1) assay, enter composite z-score for COc1ccc([Si](C)(C)[C@@H]2[C@@H](CCO)O[C@]3(C(=O)N(Cc4ccccc4)c4ccc(N5CCCCC5=O)cc43)[C@H]2C)cc1 here
1.56

Enter measured composite z-score, system PRMT1 (protein arginine N-methyltransferase 1), for the compound shown: CCCC=C(CCC)[C@@H](NS(=O)(=O)c1ccccc1)c1ccc(C(F)(F)F)cc1
1.39

Answer with composite z-score of COc1ccc([Si](C)(C)[C@@H]2[C@@H](CCO)O[C@]3(C(=O)N(Cc4cccc(N5C(=O)COc6ccccc65)c4)c4ccccc43)[C@H]2C)cc1 measured for PRMT1 (protein arginine N-methyltransferase 1).
0.896

----------
target: Torsin-1A (Homo sapiens); test: torsin A mutant lysate binding on microarrays – cell lysate, small-molecule microarray, COS7 lysate, 635/667 nm fluorescence, primary screen (AID 1150); conditions: COS7 hTOR1A mutant lysate, 635 nm fluorescence, higher = more signal;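 also: score pools 667 nm emission and signal to noise measuring lysate protein binding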
Listing: composite z-score of selected compounds
Could you keep your reply to the number by itself?

Worked examples follow.
Input Cc1ccc(F)cc1S(=O)(=O)N[C@@H]1CCN(C(=O)c2ccc(OC(C)C)cc2)C1 , output reported composite z-score.
0.196

Given the compound O=C1OCC=C[C@H]2OC34C=CCN(CCN5CCOCC5)C(=O)[C@H]3N(CCCCCO)C(=O)[C@@H]4[C@@H]12 (some centres undefined) , write its reported composite z-score.
0.11

Output composite z-score of [N-]=[N+]=NCc1ccccc1[C@H]1OC(c2ccc(OCCCO)cc2)=N[C@@]1(Cc1ccccc1)C(N)=O
0.65

Now let's try a different one.
Return the recorded composite z-score value; entry: COC(=O)c1c(CC[C@@H](CO)NC(=O)N[C@@H](C)Cn2cc(C3(O)CCCC3)nn2)oc(C(C)=O)c1C(=O)OC
0.277

----------
experiment: optical density change of DRC41 E. coli – strain DRC41, OD650, 24 h, E. coli filamentation project, primary screen (AID 1093);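 also: MC1000 strain lacking acrAB efflux and sulA so SOS filamentation is blocked; test concentration not given here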; settings: E. coli DRC41 growth, higher = more signal, called active from +8 up or from −8 down
Examples of compounds with documented z-score follow.
Give the value as a plain number.

Consider the compound COCCOC(=O)N1C(=O)[C@@]2(c3cc(C#CC4(O)CCCCCC4)ccc31)[C@H](C(=O)NC[C@H](O)c1ccccc1)[C@H]1C(=O)O[C@H](c3ccccc3)[C@H](c3ccccc3)N1[C@@H]2c1ccc(OCCO)cc1 . State its measured z-score.
1.35

Next:
Respond only with z-score recorded for CCCCCCCCCCC(O)C1C=CC2C(=O)NC(=O)C2N1Nc1ccccn1 (stereo not drawn)
-15.5

Provide only the value of recorded z-score for C=CCNC(=O)[C@@H]1[C@H]2C(=O)O[C@H](c3ccccc3)[C@H](c3ccccc3)N2[C@H](c2ccc(O)cc2)[C@@]12C(=O)Nc1ccc(C#CCCO)cc12
2.31

----------
tested on: Noggin (protein binding on small-molecule microarray); assay: small molecules binding Noggin protein – biochemical, 635/667 nm fluorescence, primary screen (AID 1095); conditions: 635 nm fluorescence, higher = more signal;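 also: score merges 667 nm feature fluorescence with signal to noise over triplicate slides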
Catalogue of composite z-score readings, one per entry.

Some entries whose results are on file:
Answer with reported composite z-score of C=C(/C(=C/C[C@@H](OC(C)=O)c1ccccc1OCCO)c1cnc2ccccc2c1)C(C)C
1.2

Report measured composite z-score; entry is N#Cc1ccc(NN2C(C(O)c3ccco3)C=CC3C(=O)N(c4ccccc4)C(=O)C32)cc1 (stereo not drawn)
-0.0593

Please examine the following record next.
Identify measured composite z-score associated with CCCc1cc2c(n1Cc1ccc(OC)cc1)C(C)C1CN(C(=O)c3ccccc3)C(C)(C(=O)OC)C21 (stereo not drawn)
-0.758

----------
molecular target: Calmodulin-1 (Homo sapiens) (UniProt P0DP23); test: small molecules binding Ca-loaded calmodulin-1 – biochemical, small-molecule microarray, Cy5-labelled CALM1, plus calcium, artefact control for SMM control-protein annotation, profiling panel (AID 1112); settings: Cy5-CALM1 binding fluorescence, higher = more signal;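 also: score merges spot fluorescence with signal to noise from triplicate slides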
Quick rule: composite z-score of at least 0.2 means True, below that means False.

Before answering, review these 3 worked examples.
Could you please find out whether O=C(NCc1ccccc1)[C@]1(Cc2ccccc2)N=C(c2ccc(OCCCO)cc2)O[C@@H]1c1ccccc1 has composite z-score that meets 0.2 or exceeds it?
True

Please indicate if the recorded composite z-score for Cc1ccc(S[C@]2(C(=O)NCc3ccccc3)CC(=O)N(C3Cc4ccccc4C3)[C@@H]2c2ccc(CO)cc2I)cc1 meets or exceeds 0.2.
False

Is composite z-score at least 0.2? Consider COCCCNC(=O)[C@@]1(Cc2ccccc2CN=[N+]=[N-])N=C(c2ccc(OCCCO)cc2)O[C@H]1c1ccccc1N=[N+]=[N-]
True

---
Tell me whether composite z-score is at least 0.2 here: COCCCNC(=O)[C@@]1(C)c2ccccc2C(=O)N(c2ccc(C)cn2)[C@H]1c1ccc(CO)cc1
False

Is composite z-score for CC(C)NC(=O)[C@@H]1c2ccccc2C(=O)N(Cc2cc(C(F)(F)F)cc(C(F)(F)F)c2)[C@H]1c1ccc(CO)cc1 at or above 0.2?
True

Could you please find out whether COCCOC(=O)N1C(=O)[C@@]2(c3cc(C#Cc4ccc(OC)cc4)ccc31)[C@H](c1ccc(OCCO)cc1)N1[C@H](c3ccccc3)[C@H](c3ccccc3)OC(=O)[C@H]1[C@@H]2C(N)=O has composite z-score that meets 0.2 or exceeds it?
True

Item O=C1N(Cc2ccccc2)c2ccccc2[C@H]2OC(c3ccc(OCCCO)cc3)=N[C@@]12CCS(=O)(=O)c1ccccc1 with composite z-score of 0.2 or above?
False

Could you tell me if the measured composite z-score of COc1ccc([Si](C)(C)[C@@H]2[C@@H](CC(=O)N(CCO)Cc3ccccc3)O[C@]3(C(=O)N(Cc4ccc(N5CCOC5=O)cc4)c4ccccc43)[C@H]2C)cc1 reaches 0.2 or more?
True

Is composite z-score at least 0.2? Consider CC(C)c1ccc(NN2C(C(O)c3ccccn3)C=CC3C(=O)N(c4ccccc4)C(=O)C32)cc1 (stereo not given)
True

Would you say CCOC(=O)C[C@H]1[C@H](OC(=O)c2ccccc2-c2ccccc2)[C@@H](NC(=O)c2ccccc2)c2cc(OCCCO)ccc2N1C(=O)Cc1ccc(OC)cc1 shows composite z-score at minimum 0.2?
False

Evaluate C[N+](C)(C)CCCCCCNC(=O)[C@H]1C[C@H]2C(=O)N3CCC[C@H]3C(=O)N2[C@H]1c1cccc(OCCO)c1 : composite z-score at minimum 0.2?
False

# check: composite z-score of Cc1ccc(S[C@]2(C(=O)O)CC(=O)N(C3CCCCC3)[C@@H]2c2ccc(CO)cc2)cc1 is greater than or equal to 0.2
False

For this molecule, is measured composite z-score 0.2 or higher? COc1ccc(C(=O)Nc2ccc3c(c2)[C@]2(O[C@@H](CCO)[C@H]([Si](C)(C)c4ccc(OC)cc4)[C@H]2C)C(=O)N3Cc2ccccc2)cc1
True

Check this molecule for composite z-score at or above 0.2: COCCCNC(=O)[C@]1(Cc2ccccc2CN=[N+]=[N-])N=C(c2ccc(OCCCO)cc2)O[C@@H]1c1ccccc1CN=[N+]=[N-]
True

Threshold query (composite z-score >= 0.2) on Cc1cc(C)c(C(O)C2C=CC3C(=O)N(c4ccccc4)C(=O)C3N2Nc2ccccc2)c(C)c1 (stereo not given)
True

API: above_or_equal(metric=composite z-score, cutoff=0.2) for item CCN(CC)c1ccc(N2CC=CC34O[C@@H]5/C=C\CCCOC(=O)C5[C@H]3C(=O)N(CCCCCO)[C@@H]4C2=O)cc1 (stereo not given in full)
False

Given the entry CC(C)N1C(=O)c2ccccc2[C@](C)(C(=O)O)[C@@H]1c1ccc(CO)cc1 , answer whether its composite z-score meets or surpasses 0.2.
True

State whether the measured composite z-score reaches 0.2, counting equality as reaching it, for COC(=O)[C@@]1(Cc2ccc(F)cc2)[C@@H]2[C@@H](CC(=O)[C@H]2CC(=O)C(=O)N2CCCC2)CN1C(=O)c1ccccc1
True

Would you say COC(=O)C(CC#Cc1ccc2c(c1)[C@]1(C(=O)N2)[C@H](c2ccc(OCCO)cc2)N2[C@H](c3ccccc3)[C@H](c3ccccc3)OC(=O)[C@H]2[C@@H]1C(=O)O)C(=O)OC shows composite z-score at minimum 0.2?
True

Hi team, for C=CCC(OC(C)=O)[C@@H]1[C@@H](N(Cc2cccc3ccccc23)C(=O)c2ccc(C)cc2)c2cc(OCCCO)ccc2N1C(=O)c1ccc2ccccc2c1 (stereo not given in full) , is the recorded composite z-score at or above 0.2?
False
